Where do these numbers come from? They come from patent US6951856B2.

target: human recombinant ETB receptors (Homo sapiens); construct: expressed in transfected cells; host or cells: CHO cells (microsomal membranes); test: Inhibition of [125I]ET-1 binding to membranes from CHO cells carrying human ETB receptors
Sequence (P24530 27-442): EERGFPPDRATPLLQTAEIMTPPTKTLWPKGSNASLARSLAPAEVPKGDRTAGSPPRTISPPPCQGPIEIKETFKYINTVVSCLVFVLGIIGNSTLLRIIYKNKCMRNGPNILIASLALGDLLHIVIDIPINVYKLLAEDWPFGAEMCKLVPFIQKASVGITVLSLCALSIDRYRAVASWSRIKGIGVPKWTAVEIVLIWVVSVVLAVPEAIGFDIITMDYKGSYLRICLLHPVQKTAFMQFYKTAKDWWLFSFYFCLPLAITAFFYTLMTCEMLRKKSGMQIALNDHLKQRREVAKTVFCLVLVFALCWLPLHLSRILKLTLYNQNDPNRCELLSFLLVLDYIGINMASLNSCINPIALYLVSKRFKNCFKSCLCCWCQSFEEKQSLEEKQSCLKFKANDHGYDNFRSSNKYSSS
Kindly state IC50 for each of the entries shown.
Supply the numeric figure in nM, leaving out any unit text.

What does the record list as IC50 for CCc1ccc(-c2c(NS(=O)(=O)/C=C/c3ccccc3)ncnc2OCCOc2ncc(Br)cn2)cc1 ?
3390

Please do the same for Cc1ccc(-c2c(NS(=O)(=O)/C=C/c3ccccc3)nc(N3CCOCC3)nc2OCCOc2ncc(Br)cn2)cc1 as well.
2750

Now try Cc1ccc(/C=C/S(=O)(=O)Nc2ncnc(OCCOc3ncc(Br)cn3)c2-c2ccc(C)cc2)cc1 .
270

Same read-out for COc1ccccc1Oc1c(NS(=O)(=O)/C=C/c2ccccc2)ncnc1OCCOc1ncc(SC)cn1 ?
506

====

Biological target: human recombinant ETA receptors (Homo sapiens)
Sequence (P25101 21-427): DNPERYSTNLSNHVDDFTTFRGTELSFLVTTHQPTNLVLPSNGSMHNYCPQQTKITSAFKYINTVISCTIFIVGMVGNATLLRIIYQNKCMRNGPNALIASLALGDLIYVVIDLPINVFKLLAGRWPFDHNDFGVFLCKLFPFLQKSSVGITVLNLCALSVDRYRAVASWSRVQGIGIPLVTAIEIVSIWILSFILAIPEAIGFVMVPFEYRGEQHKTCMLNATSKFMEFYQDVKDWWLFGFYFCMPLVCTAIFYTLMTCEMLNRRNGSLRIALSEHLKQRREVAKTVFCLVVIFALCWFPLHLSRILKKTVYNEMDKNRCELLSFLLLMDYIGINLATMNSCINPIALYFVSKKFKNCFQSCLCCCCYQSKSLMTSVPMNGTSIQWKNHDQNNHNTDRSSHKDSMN
Test: Inhibition of [125I]ET-1 binding to membranes from CHO cells carrying human ETA receptors
Settings: CHO cell membranes, 8 pM [125I]ET-1, 2 h at 20° C.
measurement-kind: IC50 (nM)
Could you give me the number in nM? Just the number is fine.

Quick one: IC50 of Cc1ccc(-c2c(NS(=O)(=O)/C=C/c3cccs3)nc(-c3ncccn3)nc2OCCOc2ncc(Cl)cn2)cc1 ?
7.6

Another: Cc1ccc(-c2c(NS(=O)(=O)/C=C/c3ccccc3)ncnc2OCCOc2ncc(Br)cn2)cc1
1.8

Next compound: COc1cnc(OCCOc2ncnc(NS(=O)(=O)/C=C/c3cccc(C)c3)c2-c2ccc(Cl)cc2)nc1
21

Same read-out for COc1ccccc1Oc1c(NS(=O)(=O)/C=C/c2ccccc2)nc(-c2cnccn2)nc1OCCOc1ncc(Br)cn1 ?
16.7

====

Target: human recombinant ETA receptors (Homo sapiens, UniProt P25101)
Sequence (P25101 21-427): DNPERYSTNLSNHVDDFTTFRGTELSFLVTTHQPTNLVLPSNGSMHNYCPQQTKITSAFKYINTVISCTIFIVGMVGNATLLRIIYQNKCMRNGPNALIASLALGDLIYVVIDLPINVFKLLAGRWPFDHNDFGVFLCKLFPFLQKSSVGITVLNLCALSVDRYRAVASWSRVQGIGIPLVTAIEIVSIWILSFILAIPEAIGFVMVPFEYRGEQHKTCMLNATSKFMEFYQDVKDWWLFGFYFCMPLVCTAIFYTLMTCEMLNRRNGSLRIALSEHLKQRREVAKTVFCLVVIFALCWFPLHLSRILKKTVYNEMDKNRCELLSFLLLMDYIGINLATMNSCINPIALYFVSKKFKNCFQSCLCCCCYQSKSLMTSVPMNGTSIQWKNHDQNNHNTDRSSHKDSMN
Assay: Inhibition of [125I]ET-1 binding to membranes from CHO cells carrying human ETA receptors
Conditions: CHO cell membranes, 8 pM [125I]ET-1, 2 h at 20° C.
Would you mind telling me the reported IC50 of each entry?
Answer with a number only, understood to be in nM.

I have this compound here, COc1ccccc1Oc1c(NS(=O)(=O)/C=C/c2ccccc2)nc(N2CCOCC2)nc1OCCOc1ncc(Br)cn1 , and I need its recorded IC50.
2.6

Further, for O=S(=O)(/C=C/c1ccccc1)Nc1ncnc(OCCOc2ncc(Cl)cn2)c1-c1ccc(Cl)cc1 ?
7.04

Can you check COc1cnc(OCCOc2nc(-c3ccncc3)nc(NS(=O)(=O)/C=C/c3ccsc3)c2Oc2ccccc2OC)nc1 next?
9

And the next one, Cc1ccc(-c2c(NS(=O)(=O)/C=C/c3ccccc3)nc(C)nc2OCCOc2ncc(Br)cn2)cc1 ?
4.4

Cool, now COc1ccccc1Oc1c(NS(=O)(=O)/C=C/c2ccsc2)nc(-c2ccncc2)nc1OCCOc1ncc(Br)cn1
5

Same for COc1cnc(OCCOc2nc(-c3ccncc3)nc(NS(=O)(=O)/C=C/c3ccccc3)c2-c2ccc(C)cc2)nc1
27.5

Entry COc1cnc(OCCOc2nc(-c3ncccn3)nc(NS(=O)(=O)/C=C/c3cccs3)c2-c2ccc(C)cc2)nc1 please
7.8

Moving on to the next compound: COc1cnc(OCCOc2nc(C3CC3)nc(NS(=O)(=O)/C=C/c3ccccc3)c2-c2ccc(C)cc2)nc1
8.2

What do you get for O=S(=O)(/C=C/c1ccccc1)Nc1nc(-c2ccncc2)nc(OCCOc2ncc(Br)cn2)c1-c1ccccc1 ?
39

Thanks! And Cc1ccc(/C=C/S(=O)(=O)Nc2ncnc(OCCOc3ncc(Br)cn3)c2-c2ccc(C)cc2)cc1 ?
8.2

Lookup COc1ccc(-c2c(NS(=O)(=O)/C=C/c3ccccc3)ncnc2OCCOc2ncc(Br)cn2)cc1
9.8

Another compound to look at: COc1ccccc1Oc1c(NS(=O)(=O)/C=C/c2ccccc2)nc(-c2ccncc2)nc1OCCOc1ncc(Cl)cn1
10

Now the compound O=S(=O)(/C=C/c1ccccc1)Nc1ncnc(OCCOc2ncc(Br)cn2)c1-c1ccc(Br)cc1
3.8

Next compound up: O=S(=O)(/C=C/c1ccccc1)Nc1nc(N2CCCCC2)nc(OCCOc2ncc(Br)cn2)c1-c1ccccc1
24.9

# iterate: COc1ccccc1Oc1c(NS(=O)(=O)/C=C/c2cccs2)nc(-c2ccncc2)nc1OCCOc1ncc(Br)cn1
4.2

====

Biological target: human recombinant ETA receptors (Homo sapiens, UniProt P25101)
Sequence (P25101 21-427): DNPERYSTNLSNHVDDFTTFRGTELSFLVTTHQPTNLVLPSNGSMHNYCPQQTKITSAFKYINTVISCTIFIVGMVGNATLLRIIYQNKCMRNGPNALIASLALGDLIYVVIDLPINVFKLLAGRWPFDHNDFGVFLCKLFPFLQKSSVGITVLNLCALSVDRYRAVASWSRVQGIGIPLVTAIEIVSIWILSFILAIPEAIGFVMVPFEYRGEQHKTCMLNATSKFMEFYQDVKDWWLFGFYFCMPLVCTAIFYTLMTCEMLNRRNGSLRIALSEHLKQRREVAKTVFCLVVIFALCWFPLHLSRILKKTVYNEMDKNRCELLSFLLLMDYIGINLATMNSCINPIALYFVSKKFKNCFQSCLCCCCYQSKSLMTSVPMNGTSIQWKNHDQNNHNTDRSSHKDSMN
Assay: Inhibition of [125I]ET-1 binding to membranes from CHO cells carrying human ETA receptors
Details: CHO cell membranes, 8 pM [125I]ET-1, 2 h at 20° C.
Label 1 when IC50 is strictly below 0.006 µM; at or above that, label 0.

State whether 0.006 µM exceeds IC50 recorded for COc1ccccc1Oc1c(NS(=O)(=O)/C=C/c2cccs2)nc(-c2ncccn2)nc1OCCOc1ncc(Br)cn1 .
0

And the next one, Cc1ccc(-c2c(NS(=O)(=O)/C=C/c3cccs3)nc(-c3ncccn3)nc2OCCOc2ncc(C)cn2)cc1 ?
0

Input COc1cnc(OCCOc2ncnc(NS(=O)(=O)/C=C/c3cccs3)c2-c2ccc(Br)cc2)nc1
1

Same thing, different compound: COc1cnc(OCCOc2nc(-c3ccncc3)nc(NS(=O)(=O)/C(C)=C/c3ccccc3)c2Oc2ccccc2OC)nc1
1

Let us now turn to COc1ccccc1Oc1c(NS(=O)(=O)/C=C/c2ccccc2)nc(-c2ccncc2)nc1OCCOc1ncc(Br)cn1
0

One more compound: COc1cnc(OCCOc2nc(-c3ccncc3)nc(NS(=O)(=O)/C=C/c3ccccc3)c2Oc2ccccc2OC)nc1
0

Same lookup for Cc1ccc(-c2c(NS(=O)(=O)/C=C/c3cccs3)ncnc2OCCOc2ccc(C(F)(F)F)cn2)cc1 , please.
0

Next entry: COc1ccccc1Oc1c(NS(=O)(=O)/C(C)=C/c2ccccc2)nc(-c2ccncc2)nc1OCCOc1ncc(Cl)cn1
1

Here is the next compound: COc1cnc(OCCOc2nc(C)nc(NS(=O)(=O)/C=C/c3ccccc3)c2-c2ccc(C)cc2)nc1
0

Request: Cc1ccc(-c2c(NS(=O)(=O)/C=C/c3ccccc3)ncnc2OCCOc2ccc(Br)cc2)cc1
0

What about this compound? O=S(=O)(/C=C/c1cccs1)Nc1ncnc(OCCOc2ncc(Cl)cn2)c1-c1ccc(Br)cc1
1

Next record, please: COc1cnc(OCCOc2ncnc(NS(=O)(=O)/C=C/c3ccccc3)c2Oc2cc(OC)ccc2Cl)nc1
0

Now give it for Cc1ccc(-c2c(NS(=O)(=O)/C=C/c3ccccc3)nc(-c3ncccn3)nc2OCCOc2ncc(Br)cn2)cc1 too.
0

Again, but for Cc1ccc(-c2c(NS(=O)(=O)/C=C/c3ccccc3)ncnc2OCCOc2ccc(Br)cn2)cc1
0

Another compound: COc1ccccc1Oc1c(NS(=O)(=O)/C=C/c2cccs2)ncnc1OCCOc1ncc(Br)cn1
0

How about Cc1ccc(-c2c(NS(=O)(=O)/C=C/c3ccccc3)nc(C3CC3)nc2OCCOc2ncc(Cl)cn2)cc1 ?
0

Moving on to the next compound: COc1ccccc1Oc1c(NS(=O)(=O)/C=C/c2ccccc2)ncnc1OCCOc1ncc(Br)cn1
0

Now consider Cc1ccc(-c2c(NS(=O)(=O)/C=C/c3ccccc3)ncnc2OCCOc2cnccn2)cc1 .
0

Let us now turn to Cc1ccc(-c2c(NS(=O)(=O)/C=C/c3ccccc3)ncnc2OCCOc2ncc(Br)cn2)cc1C
0

// query: COc1ccccc1Oc1c(NS(=O)(=O)/C=C/c2ccccc2)nc(N2CCOCC2)nc1OCCOc1ncc(C(F)(F)F)cn1
0

Thanks! And O=S(=O)(/C=C/c1ccccc1)Nc1ncnc(OCCOc2ccc(C(F)(F)F)cn2)c1-c1ccc(Cl)cc1 ?
0

Same question, COc1ccccc1Oc1c(NS(=O)(=O)/C(C)=C/c2ccccc2)nc(N2CCOCC2)nc1OCCOc1ncc(Br)cn1 this time
1

What do we get for CCc1ccc(-c2c(NS(=O)(=O)/C=C/c3ccccc3)ncnc2OCCOc2ncc(Br)cn2)cc1 ?
0

Same thing, different compound: Cc1ccc(-c2c(NS(=O)(=O)/C=C/c3cccc(C)c3)ncnc2OCCOc2ncc(Br)cn2)cc1
1

// repeat for Cc1ccc(-c2c(NS(=O)(=O)/C=C/c3ccccc3)ncnc2OCCOc2nc3ccccc3o2)cc1 and report
0

Same again, this time with COc1cnc(OCCOc2ncnc(NS(=O)(=O)/C=C/c3ccccc3)c2-c2ccc(Br)cc2)nc1
1

Same again, this time with O=S(=O)(/C=C/c1ccccc1)Nc1ncnc(OCCOc2ncc(Br)cn2)c1-c1ccccc1
0

Request: O=S(=O)(/C=C/c1ccccc1)Nc1ncnc(OCCOc2ncc(F)cn2)c1-c1ccc(Cl)cc1
0
